- Species: Rattus norvegicus
- Assay Notes: Open TG-GATES - Regimen: Single
- Format: toxicity, organism-based, Sprague-Dawley
- Set-up: regimen Single, gender Male, age 6 weeks
- Conditions: in vivo, po, 1000 mg/kg, 3 h, tissue Blood, route gavage, dose level High
Field: label. Allowed values: t (RBC < 600 x10_4/ul) or f (RBC >= 600 x10_4/ul).

Asked: Determine if NC(N)=Nc1nc(CSCCC(N)=NS(N)(=O)=O)cs1 shows RBC strictly lower than 600 x10_4/ul.
Given back: f

Asked: Determine if CCOC(=O)CCC(=O)O[C@H]1[C@H](O[C@@H]2[C@@H](C)[C@H](O[C@H]3C[C@@](C)(OC)[C@@H](O)[C@H](C)O3)[C@@H](C)C(=O)O[C@H](CC)[C@@](C)(O)[C@H](O)[C@@H](C)C(=O)[C@H](C)C[C@@]2(C)O)O[C@H](C)C[C@@H]1N(C)C [ERYTHROMYCIN ETHYLSUCCINATE] shows RBC strictly lower than 600 x10_4/ul.
Given back: f

Asked: Determine if COC1=CC(=O)C[C@@H](C)[C@]12Oc1c(Cl)c(OC)cc(OC)c1C2=O shows RBC strictly lower than 600 x10_4/ul.
Given back: t

----------
- Species: Rattus norvegicus
- Assay Notes: Open TG-GATES - Regimen: Single
- Assay type: toxicity, organism-based, Sprague-Dawley
- Design: regimen Single, gender Male, age 6 weeks
- Conditions: in vivo, po, 0 mg/kg, 9 h, tissue Plasma, route gavage, dose level Control
Reported Property: TG

Asked: Given the compound CC/C(=C(\c1ccccc1)c1ccc(OCCN(C)C)cc1)c1ccccc1 [TAMOXIFEN] , what is its reported TG?
Given back: 37.4 mg/dL

Asked: Given the compound NC(N)=Nc1nc(CSCCC(N)=NS(N)(=O)=O)cs1 [FAMOTIDINE] , what is its reported TG?
Given back: 46.6 mg/dL

Asked: Given the compound CC1=C(/C=C/C(C)=C/C=C/C(C)=C/CO)C(C)(C)CCC1 [RETINOL] , what is its reported TG?
Given back: 52.2 mg/dL

Asked: Given the compound CCCNC(=O)NS(=O)(=O)c1ccc(Cl)cc1 [CHLORPROPAMIDE] , what is its reported TG?
Given back: 41.4 mg/dL

Asked: Given the compound O=C(CCCN1CCC(O)(c2ccc(Cl)cc2)CC1)c1ccc(F)cc1 [HALOPERIDOL] , what is its reported TG?
Given back: 35.4 mg/dL

Asked: Given the compound CN1C(=O)CN=C(c2ccccc2)c2cc(Cl)ccc21 [DIAZEPAM] , what is its reported TG?
Given back: 41.6 mg/dL

Asked: Given the compound COC1=CC(=O)C[C@@H](C)[C@]12Oc1c(Cl)c(OC)cc(OC)c1C2=O [GRISEOFULVIN] , what is its reported TG?
Given back: 41.2 mg/dL

Asked: Given the compound CC(C)OC(=O)C(C)(C)Oc1ccc(C(=O)c2ccc(Cl)cc2)cc1 [FENOFIBRATE] , what is its reported TG?
Given back: 38.6 mg/dL

Asked: Given the compound CCOC(=O)CCC(=O)O[C@H]1[C@H](O[C@@H]2[C@@H](C)[C@H](O[C@H]3C[C@@](C)(OC)[C@@H](O)[C@H](C)O3)[C@@H](C)C(=O)O[C@H](CC)[C@@](C)(O)[C@H](O)[C@@H](C)C(=O)[C@H](C)C[C@@]2(C)O)O[C@H](C)C[C@@H]1N(C)C [ERYTHROMYCIN ETHYLSUCCINATE] , what is its reported TG?
Given back: 51.6 mg/dL

Asked: Given the compound CCOc1ccc(NC(=O)CC(C)O)cc1 (stereo unspecified) [BUCETIN] , what is its reported TG?
Given back: 57.2 mg/dL

Asked: Given the compound CN(C)CCN(Cc1cccs1)c1ccccn1 , what is its reported TG?
Given back: 59.4 mg/dL
